molecular target: KOR (kappa opioid receptor) (Homo sapiens); construct: expressed in transfected cells; test: Inhibition of cAMP accumulation in forskolin-stimulated CHO-K1 cells stably expressing KOR; assay type: cell-based
Give EC50 for every item shown.
Numbers only, in nM.

Example entries begin here.
>>> df
                                   compound  unit_label  value_observed
0  CN([C@H](CN1CC[C@H](O)C1)c1ccc(OCCO)cc1)S(=O)(=O)Cc1ccc(Cl)c(Cl)c1          nM            15.5
1  CC(O)CS(=O)(=O)Nc1cccc([C@@H](CN2CCCC2)N(C)C(=O)C(c2ccccc2)c2ccccc2)c1 (stereo partly drawn)          nM            18.5
2  COCCN(C)S(=O)(=O)Nc1cccc([C@@H](CN2CCCC2)N(C)C(=O)Cc2ccc(Cl)c(Cl)c2)c1          nM            0.19
3  CN(C(=O)Cc1ccc(Cl)c(Cl)c1)[C@H](CN1CCCC1)c1cccc(NS(=O)(=O)c2cn(C)nc2C(F)(F)F)c1          nM            1.35

Give one value of EC50 per listed compound.
1. Cc1ccc(CC(=O)N(C)[C@H](CN2CC[C@H](O)C2)c2ccc(OCCO)cc2)cn1
2. CN(C(=O)Cc1ccc(F)cc1F)[C@H](CN1CC[C@H](O)C1)c1ccc(OCCO)cc1
3. CC(O)CS(=O)(=O)Nc1cccc([C@@H](CN2CCCC2)N(C)C(=O)Cc2ccc(Cl)c(Cl)c2)c1 (stereo partly drawn)
4. Cc1noc(C)c1S(=O)(=O)Nc1cccc([C@@H](CN2CCCC2)N(C)C(=O)Cc2ccc(Cl)c(Cl)c2)c1
5. CN(C(=O)Cc1nccs1)[C@H](CN1CC[C@H](O)C1)c1ccc(OCCO)cc1
6. CN(C(=O)Cc1ccc(F)cc1F)[C@H](CN1CC[C@H](OCCO)C1)c1ccc(OCCO)cc1
7. CN([C@H](CN1CC[C@H](O)C1)c1ccc(OCCO)cc1)S(=O)(=O)Cc1ccc(C(F)(F)F)cc1

0.294
0.164
0.06
1.15
4.67
2670
53.6

Give one value of EC50 per listed compound.
1. CC(O)CS(=O)(=O)Nc1cccc([C@@H](CN2CCCC2)N(C)C(=O)Cc2ccc(C(F)(F)F)cc2)c1 (stereo partly drawn)
2. CN(C(=O)Cc1ccc(Cl)c(Cl)c1)[C@H](CN1CC(O)C1)c1ccc(OCCO)cc1
3. CN(C(=O)Cc1ccc(Cl)c(Cl)c1)[C@H](CN1CCCC1)c1cccc(NS(=O)(=O)c2cn(C)c(=O)n(C)c2=O)c1

[0.067, 0.78, 0.311]

Give one value of EC50 per listed compound.
1. CN(C(=O)Cc1ccc(Cl)c(Cl)c1)[C@H](CN1CCCC1)c1cccc(NS(=O)(=O)c2ccc(C#N)c(C(F)(F)F)c2)c1
2. CN(C(=O)Cc1ccc(Cl)c(Cl)c1)[C@H](CN1CCCC1)c1cccc(NS(=O)(=O)c2cccnc2Cl)c1

2
1.75

Give one value of EC50 per listed compound.
1. CN(C(=O)Cc1ccc(Cl)c(Cl)c1)[C@H](CN1CCCC1)c1cccc(NS(=O)(=O)c2ccc(Cl)nc2)c1
2. CN(C(=O)Cc1ccc(F)c(F)c1)[C@H](CN1CC[C@H](OCCO)C1)c1ccc(OCCO)cc1
3. COCCN(CCOC)S(=O)(=O)Nc1cccc([C@@H](CN2CCCC2)N(C)C(=O)Cc2ccc(Cl)c(Cl)c2)c1
4. CN(C(=O)C(c1ccccc1)c1ccccc1)[C@H](CN1CCCC1)c1cccc(NS(=O)(=O)CCOCC(F)(F)F)c1
5. CN(C(=O)Cc1ccc(Cl)c(Cl)c1)[C@H](CN1CCCC1)c1cccc(NS(=O)(=O)c2cc(Cl)c(Cl)s2)c1

0.29
33.3
0.5
28.8
3.74

###

biological target: recombinant human kappa (KOR) opioid receptor (Homo sapiens, UniProt P41145); test: Competitive radioligand binding at KOR ([3H]diprenorphine), CHO-K1 membranes; details: Cheng Prusoff correction using experimental Kd of radioligand; read-out: Kappa Opioid Receptor Ki
reported_endpoint: Ki (nM)
Numbers only, in nM.

In [3]: df
Out[3]:
                                   compound  unit_label  value_observed
0  CN(C(=O)Cc1ccc(F)cc1F)[C@H](CN1CC[C@H](O)C1)c1ccc(OCCO)cc1          nM            0.69

Give one value of Ki per listed compound.
1. CN(C(=O)Cc1ccc(Cl)c(Cl)c1)[C@H](CN1CCCC1)c1cccc(NS(=O)(=O)c2cn(C)c(=O)n(C)c2=O)c1
2. Cc1ccc(CC(=O)N(C)[C@H](CN2CC[C@H](O)C2)c2ccc(OCCO)cc2)cn1
3. Cc1noc(C)c1S(=O)(=O)Nc1cccc([C@@H](CN2CCCC2)N(C)C(=O)Cc2ccc(Cl)c(Cl)c2)c1
4. CC(O)CS(=O)(=O)Nc1cccc([C@@H](CN2CCCC2)N(C)C(=O)Cc2ccc(C(F)(F)F)cc2)c1 (stereo partly drawn)
5. CN(C(=O)Cc1ccc(F)cc1F)[C@H](CN1CC[C@H](OCCO)C1)c1ccc(OCCO)cc1
6. CN(C(=O)Cc1ccc(Cl)c(Cl)c1)[C@H](CN1CCCC1)c1cccc(NS(=O)(=O)c2cn(C)nc2C(F)(F)F)c1

1. 0.7
2. 1.34
3. 0.39
4. 0.1
5. 7490
6. 1.01

###

biological target: recombinant human kappa (KOR) opioid receptor (Homo sapiens); assay: Competitive radioligand binding at KOR ([3H]diprenorphine), CHO-K1 membranes; conditions: Cheng Prusoff correction using experimental Kd of radioligand; read-out: Kappa Opioid Receptor Ki
pKi: −log10 of the molar value.
So basically: pKi at 9 or higher? That is Criterion met. Lower than 9? That is Criterion not met.

Use these answered entries as a reference point.
>>> print(df.to_string())
                                   molecule         class_name
0  CN(C(=O)Cc1ccc(Cl)c(Cl)c1)[C@H](CN1CCCC1)c1cccc(NS(=O)(=O)c2cccnc2Cl)c1  Criterion not met
1  CN(C(=O)Cc1ccc(Cl)c(Cl)c1)[C@H](CN1CCCC1)c1cccc(NS(=O)(=O)c2ccc(C#N)c(C(F)(F)F)c2)c1  Criterion not met
2  COCCN(C)S(=O)(=O)Nc1cccc([C@@H](CN2CCCC2)N(C)C(=O)Cc2ccc(Cl)c(Cl)c2)c1      Criterion met
3  CC(O)CS(=O)(=O)Nc1cccc([C@@H](CN2CCCC2)N(C)C(=O)Cc2ccc(Cl)c(Cl)c2)c1 (stereo partly shown)      Criterion met
4  CN(C(=O)C(c1ccccc1)c1ccccc1)[C@H](CN1CCCC1)c1cccc(NS(=O)(=O)CCOCC(F)(F)F)c1  Criterion not met

Now for another entry.
Test whether the molecule `COCCN(CCOC)S(=O)(=O)Nc1cccc([C@@H](CN2CCCC2)N(C)C(=O)Cc2ccc(Cl)c(Cl)c2)c1` records pKi of 9 or higher.
Criterion met

###

target: recombinant human mu (MOR) opioid receptor (Homo sapiens); construct: expressed in transfected cells; host or cells: CHO-K1 cells (membranes); test: Competitive radioligand binding at MOR ([3H]naloxone), single concentration, CHO-K1 membranes; conditions: 10 μM test compound; percent inhibition of specific [3H]naloxone (4 nM) binding; read-out: Mu Opioid Receptor Mu Receptor Inhibition % inhib @ 10 uM
reported_endpoint: inhibition at 10 µM
In your response, the unit should come after the numeric value.

>>> df
                                   compound                              study_target    reported_endpoint  value_observed
0  CN(C(=O)Cc1ccc(Cl)c(Cl)c1)[C@H](CN1CCCC1)c1cccc(NS(=O)(=O)c2cc(Cl)c(Cl)s2)c1  recombinant human mu (MOR) opioid receptor (Homo sapiens)  inhibition at 10 µM           95.9%
1  CN(C(=O)Cc1ccc(F)cc1F)[C@H](CN1CC[C@H](O)C1)c1ccc(OCCO)cc1  recombinant human mu (MOR) opioid receptor (Homo sapiens)  inhibition at 10 µM           23.5%
2  CC(O)CS(=O)(=O)Nc1cccc([C@@H](CN2CCCC2)N(C)C(=O)Cc2ccc(Cl)c(Cl)c2)c1 (stereo partly shown)  recombinant human mu (MOR) opioid receptor (Homo sapiens)  inhibition at 10 µM             99%
3  CN(C(=O)Cc1ccc(Cl)c(Cl)c1)[C@H](CN1CC(O)C1)c1ccc(OCCO)cc1  recombinant human mu (MOR) opioid receptor (Homo sapiens)  inhibition at 10 µM           40.1%
4  CN(C(=O)Cc1ccc(F)c(F)c1)[C@H](CN1CC[C@H](OCCO)C1)c1ccc(OCCO)cc1  recombinant human mu (MOR) opioid receptor (Homo sapiens)  inhibition at 10 µM              0%
5  CN(C(=O)Cc1ccc(Cl)c(Cl)c1)[C@H](CN1CCCC1)c1cccc(NS(=O)(=O)c2ccc(Cl)nc2)c1  recombinant human mu (MOR) opioid receptor (Homo sapiens)  inhibition at 10 µM           94.2%

Now examine the next entry.
Fill in the recorded inhibition at 10 µM for this compound, with recombinant human mu (MOR) opioid receptor (Homo sapiens) as test system: `CN(C(=O)C(c1ccccc1)c1ccccc1)[C@H](CN1CCCC1)c1cccc(NS(=O)(=O)CCOCC(F)(F)F)c1`
57.6%
